Here the recorded pKa, line CuH-2L is given for each entry.
assay type: binding
Where no end group is shown, it is not given here.

- Substance: "H-LFKLLGKIIHHVGNFVHGFSHVF-OH [Clavanin E]"
  pKa, line CuH-2L: 10.05
- Substance: "VFQFLGRIIHHVGNFVHGFSHVF [Clavanin B]"
  pKa, line CuH-2L: 10.14
- Substance: "H-VFQFLGKIIHHVGNFVHGFSHVF-OH [Clavanin A]"
  pKa, line CuH-2L: 9.76
- Substance: "H-AFKLLGRIIHHVGNFVYGFSHVF-OH [Clavanin D]"
  pKa, line CuH-2L: 10.54

====

assay type: binding; conditions: potentiometry, 298 K, I = 40 mM SDS, Zn(II):L 1:1, 0.5 mM; SD in parentheses
Here the recorded log β ZnL is given for each entry.

- Substance: "H-LFKLLGKIIHHVGNFVHGFSHVF-OH [Clavanin E]"
  log β ZnL: 6.73
- Substance: "H-VFQFLGKIIHHVGNFVHGFSHVF-OH [Clavanin A]"
  log β ZnL: "6.10 (7)"
- Substance: "H-VFQFLGRIIHHVGNFVHGFSHVF-OH [Clavanin B]"
  log β ZnL: "6.53 (7)"
- Substance: "H-AFKLLGRIIHHVGNFVYGFSHVF-OH [Clavanin D]"
  log β ZnL: "6.73 (14)"

====

assay type: binding
Where no end group is shown, it is not given here.
Here the recorded pKa, line CuH3L is given for each entry.

- Substance: "H-LFKLLGKIIHHVGNFVHGFSHVF-OH [Clavanin E]"
  pKa, line CuH3L: 5.96
- Substance: "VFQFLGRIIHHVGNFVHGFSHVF [Clavanin B]"
  pKa, line CuH3L: 5.99
- Substance: "H-AFKLLGRIIHHVGNFVYGFSHVF-OH [Clavanin D]"
  pKa, line CuH3L: 6.00
- Substance: "H-VFQFLGKIIHHVGNFVHGFSHVF-OH [Clavanin A]"
  pKa, line CuH3L: 6.01

====

format: physicochemical
Where no end group is shown, it is not given here.
Here the recorded pKa, species H2L is given for each entry.

- Substance: "H-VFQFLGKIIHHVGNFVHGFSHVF-OH [Clavanin A]"
  pKa, species H2L: 8.88
- Substance: "H-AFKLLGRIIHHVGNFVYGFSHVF-OH [Clavanin D]"
  pKa, species H2L: 10.08
- Substance: "H-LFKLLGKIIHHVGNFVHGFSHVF-OH [Clavanin E]"
  pKa, species H2L: 9.19
- Substance: "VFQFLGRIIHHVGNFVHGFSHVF [Clavanin B]"
  pKa, species H2L: 9.04

====

type: binding
Where no end group is shown, it is not given here.

- Substance: "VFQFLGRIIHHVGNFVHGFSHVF [Clavanin B]"
  pKa, line CuH-3L: 11.28
- Substance: "H-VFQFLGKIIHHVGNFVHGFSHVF-OH [Clavanin A]"
  pKa, line CuH-3L: 10.16
- Substance: "H-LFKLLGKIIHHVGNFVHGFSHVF-OH [Clavanin E]"
  pKa, line CuH-3L: 10.37
- Substance: "H-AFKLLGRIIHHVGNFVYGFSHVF-OH [Clavanin D]"
  pKa, line CuH-3L: 11.91

====

Here the recorded log β ZnH2L is given for each entry.
assay type: binding; conditions: potentiometry, 298 K, I = 40 mM SDS, Zn(II):L 1:1, 0.5 mM; SD in parentheses
Quantity Measured: log β ZnH2L

- Substance: "H-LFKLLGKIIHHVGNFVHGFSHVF-OH [Clavanin E]"
  Result: "25.12 (5)"
- Substance: "H-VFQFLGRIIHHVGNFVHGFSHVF-OH [Clavanin B]"
  Result: "25.24 (2)"
- Substance: "H-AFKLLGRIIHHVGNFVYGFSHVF-OH [Clavanin D]"
  Result: "25.94 (2)"
- Substance: "H-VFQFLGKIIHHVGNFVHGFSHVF-OH [Clavanin A]"
  Result: "23.99 (2)"

====

assay type: physicochemical; details: potentiometry pH 2-11, 298 K, 4 mM HClO4, I = 40 mM SDS, ligand 0.5 mM; SD in parentheses

- Substance: "H-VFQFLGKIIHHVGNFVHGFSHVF-OH [Clavanin A]"
  log β H4L: "34.78 (7)"
- Substance: "H-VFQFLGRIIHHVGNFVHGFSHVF-OH [Clavanin B]"
  log β H4L: "36.26 (2)"
- Substance: "H-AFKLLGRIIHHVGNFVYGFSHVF-OH [Clavanin D]"
  log β H4L: "37.70 (5)"
- Substance: "H-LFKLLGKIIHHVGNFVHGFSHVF-OH [Clavanin E]"
  log β H4L: "36.07 (3)"
